Reported recombinant UMI read abundance (log10) values are given for each entry in this list.
# Method Description: recombinant UMI read abundance after kanamycin selection (control-corrected) (log10(CPM+1)); higher = more efficient recombination; extreme values may be limits of the assay; sequences stand for … in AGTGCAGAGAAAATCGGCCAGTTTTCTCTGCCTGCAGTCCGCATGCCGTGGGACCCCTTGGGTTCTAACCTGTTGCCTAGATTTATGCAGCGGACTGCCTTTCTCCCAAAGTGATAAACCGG…AGGTTGGTTTCACT; site = the 11-nt donor
Write no unit; give the number alone.

Solved entries (count: 6):
{"Chain Sequence": "CCGAAAACATGGACCGGTTTTCCCGGTAATCCGTATTTGCT (site TCGAAAACTAG)", "recombinant UMI read abundance (log10)": 0}
{"Chain Sequence": "CAAGTCCCATGGACCGGTTTTCCCGGTAATCCGTATTTGCT (site CAACTCCCTAG)", "recombinant UMI read abundance (log10)": 0.843}
{"Chain Sequence": "CGGCTACCATGGACCGGTTTTCCCGGTAATCCGTATTTGCT (site CCGCTACCTAG)", "recombinant UMI read abundance (log10)": 0}
{"Chain Sequence": "CCCCGTCCATGGACCGGTTTTCCCGGTAATCCGTATTTGAA (site CCCCGTCCTTT)", "recombinant UMI read abundance (log10)": 0.00894}
{"Chain Sequence": "AGCTCACCATGGACCGGTTTTCCCGGTAATCCGTATTTGGG (site AGCTCAACTCC)", "recombinant UMI read abundance (log10)": 0.0175}
{"Chain Sequence": "CCCTAGACATGGACCGGTTTTCCCGGTAATCCGTATTTGCC (site CCCTAGCCTGG)", "recombinant UMI read abundance (log10)": 0}

[Q] Name the recorded recombinant UMI read abundance (log10) for TGGTTTCCATGGACCGGTTTTCCCGGTAATCCGTATTTGGG (site TGGTTTCCTCC) .
[A] 0.327

[Q] Another sequence: TGTACACCATGGACCGGTTTTCCCGGTAATCCGTATTTGAC (site TGTATACCTGT)
[A] 0

[Q] Could you do the same for TGGCCGGCATGGACCGGTTTTCCCGGTAATCCGTATTTGGC (site TAGCCGGCTGC) , please?
[A] 0

[Q] Try the sequence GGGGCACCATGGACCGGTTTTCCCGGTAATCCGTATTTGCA (site GGGGTACCTTG)
[A] 0

[Q] Another: GGATTGGCATGGACCGGTTTTCCCGGTAATCCGTATTTGGT (site GGAGTGGCTAC)
[A] 0.0175

[Q] What about GTATGCACATGGACCGGTTTTCCCGGTAATCCGTATTTGCA (site GTATGCACTTC) ?
[A] 0.0124

[Q] Now consider TTTTCCCCATGGACCGGTTTTCCCGGTAATCCGTATTTGTA (site TCTTCCCCTTA) .
[A] 0.00391

[Q] Now try TCACGAACATGGACCGGTTTTCCCGGTAATCCGTATTTGTC (site ACACGAACTGA) .
[A] 0

[Q] TGACCATCATGGACCGGTTTTCCCGGTAATCCGTATTTGCT (site CGATCATCTAG) , same question.
[A] 0

[Q] Request: CAATTCCCATGGACCGGTTTTCCCGGTAATCCGTATTTGCA (site CAATTCCCTCG)
[A] 0.00698

[Q] Do the same for CCAGGTACATGGACCGGTTTTCCCGGTAATCCGTATTTGAT (site CCAGGTCCTAT) please
[A] 0

[Q] And GTATGCACATGGACCGGTTTTCCCGGTAATCCGTATTTGTA (site GCATGCACTTA) ?
[A] 0.671

[Q] Next up: GAACCGACATGGACCGGTTTTCCCGGTAATCCGTATTTGGT (site GAACCGACTAC)
[A] 0.724

[Q] Now consider GTTTGCACATGGACCGGTTTTCCCGGTAATCCGTATTTGCA (site GTTTGCACTTG) .
[A] 0.292

[Q] Please give the result for TAGCGTTCATGGACCGGTTTTCCCGGTAATCCGTATTTGGT (site TAGCATTCTAC) too.
[A] 0.538

[Q] // same read-out, input: CACTTGGCATGGACCGGTTTTCCCGGTAATCCGTATTTGCA (site CACTTGGCTTC)
[A] 0.0203

----------
# Method Description: recombinant barcode read abundance after kanamycin selection (control-corrected) (log10(CPM+1)); higher = more efficient recombination; sequences stand for … in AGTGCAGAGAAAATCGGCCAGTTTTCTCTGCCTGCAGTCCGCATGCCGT…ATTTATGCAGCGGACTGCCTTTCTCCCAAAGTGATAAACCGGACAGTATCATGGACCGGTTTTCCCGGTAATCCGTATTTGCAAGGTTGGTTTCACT; site = the 11-nt target
Below, each entry is listed alongside its reported recombinant barcode read abundance (log10).
# print the numeric value only

# annotated cases, reported recombinant barcode read abundance (log10) shown
{"Chain Sequence": "AGTCTTAAATGGGTTCTAACCTGTTGCCAAG [AGTCTTACTTG_LTGcore_AA_RTGcore_CT] (site AGTCTTACTTG) (LTG core: AA, RTG core: CT)", "Obs Value": 0.182}
{"Chain Sequence": "CATATTATCTGGGTTCTAACCTGTTGCCTAG [CATATTACTAG_LTGcore_TC_RTGcore_CT] (site CATATTACTAG) (LTG core: TC, RTG core: CT)", "Obs Value": 0.127}
{"Chain Sequence": "TAAGAATCTTGGGTTCTAACCTGTTGCCTTA [TAAGAATCTAG_LTGcore_CT_RTGcore_TA] (site TAAGAATCTAG) (LTG core: CT, RTG core: TA)", "Obs Value": 0.138}
{"Chain Sequence": "AGGCGGGTGTGGGTTCTAACCTGTTGCGGCA [AGGCGGGCTCC_LTGcore_TG_RTGcore_TG] (site AGGCGGGCTCC) (LTG core: TG, RTG core: TG)", "Obs Value": 0.0694}
{"Chain Sequence": "CGGTCCCGCTGGGTTCTAACCTGTTGCCAGC [CGGTCCCCTTG_LTGcore_GC_RTGcore_GC] (site CGGTCCCCTTG) (LTG core: GC, RTG core: GC)", "Obs Value": 0.475}

[Q] // recombinant barcode read abundance (log10) lookup, key: GGTGCCCAATGGGTTCTAACCTGTTGCCGTT [GGTGCCCCTCG_LTGcore_AA_RTGcore_AA] (site GGTGCCCCTCG) (LTG core: AA, RTG core: AA)
[A] 0.404

[Q] And the next one, TCGCGACAGTGGGTTCTAACCTGTTGCCGCT [TCGCGACCTCG_LTGcore_AG_RTGcore_AG] (site TCGCGACCTCG) (LTG core: AG, RTG core: AG) ?
[A] 0.128

[Q] Again, but for AAACACACTTGGGTTCTAACCTGTTGCCTGA [AAACACACTAG_LTGcore_CT_RTGcore_TC] (site AAACACACTAG) (LTG core: CT, RTG core: TC)
[A] 1.19

[Q] Same again, this time with ACGGGACAGTGGGTTCTAACCTGTTGCAGCT [ACGGGACCTCT_LTGcore_AG_RTGcore_AG] (site ACGGGACCTCT) (LTG core: AG, RTG core: AG)
[A] 0.237

[Q] Also TGTATTCCTTGGGTTCTAACCTGTTGCCTAC [TGTATTCCTAG_LTGcore_CT_RTGcore_GT] (site TGTATTCCTAG) (LTG core: CT, RTG core: GT) , if possible.
[A] 0.0923

[Q] Field entry: TAAGAATTTTGGGTTCTAACCTGTTGCCTAA [TAAGAATCTAG_LTGcore_TT_RTGcore_TT] (site TAAGAATCTAG) (LTG core: TT, RTG core: TT)
[A] 0.156

[Q] Now try TCGCGACCCTGGGTTCTAACCTGTTGCCGGG [TCGCGACCTCG_LTGcore_CC_RTGcore_CC] (site TCGCGACCTCG) (LTG core: CC, RTG core: CC) .
[A] 0.353

[Q] Here is the next sequence: GAGTCCACGTGGGTTCTAACCTGTTGCGTAG [GAGTCCACTAC_LTGcore_CG_RTGcore_CT] (site GAGTCCACTAC) (LTG core: CG, RTG core: CT)
[A] 0.114

----------
Listed here: items and their measured recombinant barcode read abundance (log10).
# Method Description: recombinant barcode read abundance after kanamycin selection (control-corrected) (log10(CPM+1)); higher = more efficient recombination; sequences stand for … in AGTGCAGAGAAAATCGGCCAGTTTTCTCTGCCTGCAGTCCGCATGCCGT…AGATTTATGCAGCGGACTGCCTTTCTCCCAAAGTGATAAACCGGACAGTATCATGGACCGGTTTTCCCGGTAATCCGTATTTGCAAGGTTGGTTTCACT; site = the 11-nt target
Give the value as a plain number.

{"Chain Sequence": "AGCAACCCTTGGGTTCTAACCTGTTGCAA (site AGCAACCCTTT)", "Obs Value": 0.829}
{"Chain Sequence": "ACATTTCCTTGGGTTCTAACCTGTTGCAT (site ACATTTCCTAT)", "Obs Value": 0.8}
{"Chain Sequence": "GCCATAACTTGGGTTCTAACCTGTTGCCT (site GCCATAACTAG)", "Obs Value": 0.0347}
{"Chain Sequence": "ATCGGAACTTGGGTTCTAACCTGTTGCCT (site ATCGGACCTAG)", "Obs Value": 0.0301}

[Q] Give its recombinant barcode read abundance (log10) value. Item: CATGCTCCTTGGGTTCTAACCTGTTGCCT (site CATGCTCCTAT)
[A] 0.512

[Q] Proceed to CTAGGAGCTTGGGTTCTAACCTGTTGCTA (site CTAGGAGCTGA)
[A] 0.0444

[Q] Moving on to the next sequence: TATAATACTTGGGTTCTAACCTGTTGCGG (site TATAATACTCC)
[A] 0.659
